Reference source: ChEMBL document CHEMBL2177074

# Test system: Brain
# PROTOCOL NOTES: Blood brain barrier transport in ICR-CD1 mouse brain assessed as unidirectional initial influx rate at 30000 cpm/uL, iv
# Type: ADME, organism-based
# REPORTED CONDITIONS: in vivo
Non-standard residues stand in square brackets, D forms with d. Residues, ends and D or L forms follow the SMILES beside them. Dmt = Cc1cc(O)cc(C)c1C[C@H](N)C(=O)O; Nle = CCCC[C@H](N)C(=O)O
Binary label based on Kin with cut-off 10 µL/g/min: below gives met, not below gives not met.

>>> df
                                   compound    label
0  Cc1cc(O)cc(C)c1C[C@H](N)C(=O)N[C@H](CCCNC(N)=O)C(=O)N[C@@H](Cc1ccccc1)C(=O)N[C@@H](CCCCN)C(N)=O  not met
1  Cc1cc(O)cc(C)c1C[C@H](N)C(=O)N[C@H](CCCNC(=N)N)C(=O)N[C@@H](Cc1ccccc1)C(=O)N(C)[C@@H](CCCCN)C(N)=O  not met
2  Cc1cc(O)cc(C)c1C[C@H](N)C(=O)N[C@H](CCCNC(N)=O)C(=O)N[C@@H](Cc1ccccc1)C(=O)N(C)[C@@H](CCCCN)C(N)=O  not met
3  Cc1cc(O)cc(C)c1C[C@H](N)C(=O)N[C@H](CCCN=C(N)N)C(=O)N[C@H]1Cc2ccccc2CN(CC(N)=O)C1=O  not met
4  Cc1cc(O)cc(C)c1C[C@H](N)C(=O)N[C@H](CCCNC(=N)N)C(=O)N[C@@H](Cc1ccccc1)C(=O)N[C@@H](CCCCN)C(N)=O      met
5  CCCC[C@H](NC(=O)[C@H](Cc1ccccc1)NC(=O)[C@@H](CCCN=C(N)N)NC(=O)[C@@H](N)Cc1c(C)cc(O)cc1C)C(N)=O (H-[Dmt][dR]F[Nle]-NH2)      met

* * *

# Test system: Brain
# PROTOCOL NOTES: Blood brain barrier transport in ICR-CD1 mouse brain assessed as brain efflux rate coefficient at 30000 cpm/uL, iv
# Format: ADME, organism-based
# REPORTED CONDITIONS: in vivo
Non-standard residues stand in square brackets, D forms with d. Residues, ends and D or L forms follow the SMILES beside them. Dmt = Cc1cc(O)cc(C)c1C[C@H](N)C(=O)O; Nle = CCCC[C@H](N)C(=O)O
MEASURE NAME: Activity (min⁻¹)

                                   molecule  measure_name  readout_value
0  Cc1cc(O)cc(C)c1C[C@H](N)C(=O)N[C@H](CCCN=C(N)N)C(=O)N[C@H]1Cc2ccccc2CN(CC(N)=O)C1=O      Activity          0.096
1  Cc1cc(O)cc(C)c1C[C@H](N)C(=O)N[C@H](CCCNC(N)=O)C(=O)N[C@@H](Cc1ccccc1)C(=O)N[C@@H](CCCCN)C(N)=O      Activity          0.027
2  Cc1cc(O)cc(C)c1C[C@H](N)C(=O)N[C@H](CCCNC(=N)N)C(=O)N[C@@H](Cc1ccccc1)C(=O)N(C)[C@@H](CCCCN)C(N)=O      Activity          0.028
3  Cc1cc(O)cc(C)c1C[C@H](N)C(=O)N[C@H](CCCNC(=N)N)C(=O)N[C@@H](Cc1ccccc1)C(=O)N[C@@H](CCCCN)C(N)=O      Activity          0.058
4  Cc1cc(O)cc(C)c1C[C@H](N)C(=O)N[C@H](CCCNC(N)=O)C(=O)N[C@@H](Cc1ccccc1)C(=O)N(C)[C@@H](CCCCN)C(N)=O      Activity           0.01
5  CCCC[C@H](NC(=O)[C@H](Cc1ccccc1)NC(=O)[C@@H](CCCN=C(N)N)NC(=O)[C@@H](N)Cc1c(C)cc(O)cc1C)C(N)=O (H-[Dmt][dR]F[Nle]-NH2)      Activity         -0.039

* * *

# TESTED TARGET: Mu-type opioid receptor (Rattus norvegicus, UniProt P33535)
# Sequence (P33535 whole entry): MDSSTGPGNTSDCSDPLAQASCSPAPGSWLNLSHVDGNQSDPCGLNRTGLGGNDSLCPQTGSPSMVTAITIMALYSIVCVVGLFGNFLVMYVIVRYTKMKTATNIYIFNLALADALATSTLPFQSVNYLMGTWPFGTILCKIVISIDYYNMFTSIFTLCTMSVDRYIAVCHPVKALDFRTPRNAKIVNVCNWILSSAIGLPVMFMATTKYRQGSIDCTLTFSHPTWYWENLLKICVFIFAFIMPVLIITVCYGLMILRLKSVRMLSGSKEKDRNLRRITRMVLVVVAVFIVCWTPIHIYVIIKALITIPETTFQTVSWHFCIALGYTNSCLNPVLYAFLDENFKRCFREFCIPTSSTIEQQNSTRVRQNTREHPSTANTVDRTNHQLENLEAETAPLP
Non-standard residues stand in square brackets, D forms with d. Residues, ends and D or L forms follow the SMILES beside them. Dmt = Cc1cc(O)cc(C)c1C[C@H](N)C(=O)O; dCit = NC(=O)NCCC[C@@H](N)C(=O)O; NMeNle = CCCC[C@H](NC)C(=O)O
Quick list: Ki per entry.

COMPOUND	Ki (nM)
CCCC[C@@H](C(N)=O)N(C)C(=O)[C@H](Cc1ccccc1)NC(=O)[C@@H](CCCNC(N)=O)NC(=O)[C@@H](N)Cc1c(C)cc(O)cc1C (H-[Dmt][dCit]F[NMeNle]-NH2)	2.92
Cc1cc(O)cc(C)c1C[C@H](N)C(=O)N[C@H](CCCNC(N)=O)C(=O)N[C@@H](Cc1ccccc1)C(=O)N(C)[C@@H](CCCCN)C(N)=O	0.94
CCCC[C@@H](C(N)=O)N1Cc2ccccc2C[C@H](NC(=O)[C@@H](CCCNC(N)=O)NC(=O)[C@@H](N)Cc2c(C)cc(O)cc2C)C1=O	0.93
Cc1cc(O)cc(C)c1C[C@H](N)C(=O)N[C@H](CCCNC(=N)N)C(=O)N[C@@H](Cc1ccccc1)C(=O)N(C)[C@@H](CCCCN)C(N)=O	0.26
Cc1cc(O)cc(C)c1C[C@H](N)C(=O)N[C@H](CCCNC(N)=O)C(=O)N[C@@H](Cc1ccccc1)C(=O)N[C@@H](CCCCN)C(N)=O	0.57

* * *

# PROTOCOL NOTES: Metabolic stability in mouse brain assessed as compound recovery after 2 hrs
# Assay type: ADME, tissue-based
# REPORTED CONDITIONS: read-out: Stability
Non-standard residues stand in square brackets, D forms with d. Residues, ends and D or L forms follow the SMILES beside them. Dmt = Cc1cc(O)cc(C)c1C[C@H](N)C(=O)O; Nle = CCCC[C@H](N)C(=O)O
Quick list: remaining at 2 h per entry.
MEASURE NAME: remaining at 2 h (%)

In [3]: df
Out[3]:
                                   compound  readout_value
0  Cc1cc(O)cc(C)c1C[C@H](N)C(=O)N[C@H](CCCNC(=N)N)C(=O)N[C@@H](Cc1ccccc1)C(=O)N(C)[C@@H](CCCCN)C(N)=O             94
1  CCCC[C@H](NC(=O)[C@H](Cc1ccccc1)NC(=O)[C@@H](CCCN=C(N)N)NC(=O)[C@@H](N)Cc1c(C)cc(O)cc1C)C(N)=O (H-[Dmt][dR]F[Nle]-NH2)            104
2  Cc1cc(O)cc(C)c1C[C@H](N)C(=O)N[C@H](CCCN=C(N)N)C(=O)N[C@H]1Cc2ccccc2CN(CC(N)=O)C1=O           99.6
3  Cc1cc(O)cc(C)c1C[C@H](N)C(=O)N[C@H](CCCNC(N)=O)C(=O)N[C@@H](Cc1ccccc1)C(=O)N[C@@H](CCCCN)C(N)=O           96.2
4  Cc1cc(O)cc(C)c1C[C@H](N)C(=O)N[C@H](CCCNC(N)=O)C(=O)N[C@@H](Cc1ccccc1)C(=O)N(C)[C@@H](CCCCN)C(N)=O             95
5  Cc1cc(O)cc(C)c1C[C@H](N)C(=O)N[C@H](CCCNC(=N)N)C(=O)N[C@@H](Cc1ccccc1)C(=O)N[C@@H](CCCCN)C(N)=O            103

* * *

# TESTED TARGET: Mu-type opioid receptor (Cavia porcellus, UniProt P97266)
# Sequence (P97266 whole entry): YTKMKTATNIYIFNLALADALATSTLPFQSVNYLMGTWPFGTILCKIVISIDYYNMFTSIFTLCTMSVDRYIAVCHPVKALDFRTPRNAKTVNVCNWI
# PROTOCOL NOTES: Agonist activity at mu opioid receptor in guinea pig ileum
pIC50: −log10 of the molar value. Non-standard residues stand in square brackets, D forms with d. Residues, ends and D or L forms follow the SMILES beside them. Dmt = Cc1cc(O)cc(C)c1C[C@H](N)C(=O)O; dCit = NC(=O)NCCC[C@@H](N)C(=O)O; Nle = CCCC[C@H](N)C(=O)O
MEASURE NAME: pIC50

>>> df
                                   compound  measure_name  readout_value
0  CCCC[C@@H](C(N)=O)N(C)C(=O)[C@H](Cc1ccccc1)NC(=O)[C@@H](CCCN=C(N)N)NC(=O)[C@@H](N)Cc1c(C)cc(O)cc1C         pIC50           8.36
1  CCCC[C@H](NC(=O)[C@H](Cc1ccccc1)NC(=O)[C@@H](CCCNC(N)=O)NC(=O)[C@@H](N)Cc1c(C)cc(O)cc1C)C(N)=O (H-[Dmt][dCit]F[Nle]-NH2)         pIC50           9.05
2  CCCC[C@@H](C(N)=O)N1Cc2ccccc2C[C@H](NC(=O)[C@@H](CCCN=C(N)N)NC(=O)[C@@H](N)Cc2c(C)cc(O)cc2C)C1=O         pIC50           8.84
3  CCCC[C@H](NC(=O)[C@H](Cc1ccccc1)NC(=O)[C@@H](CCCN=C(N)N)NC(=O)[C@@H](N)Cc1c(C)cc(O)cc1C)C(N)=O (H-[Dmt][dR]F[Nle]-NH2)         pIC50           8.66
4  Cc1cc(O)cc(C)c1C[C@H](N)C(=O)N[C@H](CCCNC(=N)N)C(=O)N[C@@H](Cc1ccccc1)C(=O)N(C)[C@@H](CCCCN)C(N)=O         pIC50           8.08
5  Cc1cc(O)cc(C)c1C[C@H](N)C(=O)N[C@H](CCCNC(=N)N)C(=O)N[C@H]1Cc2ccccc2CN([C@@H](CCCCN)C(N)=O)C1=O         pIC50           7.12
